# measurementProtocol: TTR transcription activators in neuroblastoma reporter cells, primary screen, cell-based, luminescence, SH-SY5Y, TTR promoter Gaussia luciferase (AID 1117267);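 further: cells exposed to compounds for one day before reading; 0% = median of all test compound wells on the plate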
# conditionLabel: at 16.7 µM, 100% = recombinant luciferase protein wells
The campaign covered roughly 92,000 compounds. About 1,200 (1.3%) were called active.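 How the source made its calls: active means activation above the mean of all tested compounds plus 3 SD (cut at about 9.5% in these data); inactive means the rest.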 The entries come from a sample that favours actives as a whole.
Lab note: assign the record to one of Yes (active), No (inactive)

> print(dat)
                                   compound  cat
1  CC1=C(C(=O)N2CCOCC2)CC(CC(=O)NCc2cccc3ccccc23)C(=O)N1CCC1=CCCCC1 (stereo unspecified)   No
2  COc1ccc(C(C)NC(=O)C23CC4CC(CC(C4)C2)C3)cc1 (stereo unspecified)   No
3  CCOc1ccc(N=C2NC(=O)S/C2=C\c2ccc(O)cc2)cc1  Yes
4  COc1ccc(C2c3ccc(O)cc3Oc3ncn(CCCO)c(=N)c32)cc1OC (stereo unspecified)  Yes
5           COc1cc2c(=O)n(C)c3ccccc3c2cc1OC   No

Data request: Outcome logged for COc1ccc(C(=O)N2CCCC(C(=O)c3ccccc3OC)C2)cc1OC (stereo unspecified) in this assay:
Data returned: No

----------
# measurementProtocol: TTR transcription activators in neuroblastoma reporter cells, primary screen, cell-based, luminescence, SH-SY5Y, TTR promoter Gaussia luciferase (AID 1117267);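 further: cells exposed to compounds for one day before reading; 0% = median of all test compound wells on the plate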
# conditionLabel: at 16.7 µM, stronger effect = higher value, 100% = recombinant luciferase protein wells
About 1,200 (1.3%) of roughly 92,000 compounds were called active. What follows is part of a selection rich in actives, with near analogues and random picks from the rest.
measuredProperty: activation (%)
State just the number; it will be interpreted in %.

Data request: # get_value(readout='activation', item= "CCOc1ccc(CCN2C(=O)C(=O)N([C@@H](Cc3ccc(O)cc3)CN3CCC[C@H]3CN3C(=O)C(=O)NC[C@@H]3CC(C)C)C[C@@H]2Cc2ccccc2)cc1" )
Data returned: 2.35

Data request: Param item: O=C(NC1CCCC1)C1c2ccccc2OCC(=O)N1CC(F)(F)F (stereo unspecified)
Data returned: -1.49

Data request: Now consider COc1ccc(C(=O)C(C)OC(=O)c2cccc(S(=O)(=O)Nc3c(C)n(C)n(-c4ccccc4)c3=O)c2)cc1 (stereo unspecified) and answer again.
Data returned: 0.13

Data request: Another molecule to check: O=C1NC(=Nc2ccc(Cl)cc2)SC1Cc1cccc(Cl)c1Cl (stereo unspecified)
Data returned: -2.63

Data request: Input "COc1cc2c(cc1CNC[C@H]1O[C@@H](n3cnc(C(N)=O)n3)[C@H](O)[C@@H]1O)OCO2"
Data returned: 1.81

Data request: Another molecule to look at: Cc1ccccc1CN1CCCCC(NC(=O)Nc2ccccc2F)C1=O (stereo unspecified)
Data returned: -2.49

Data request: Now try "CCc1nn(CCCC(=O)Nc2ccc(C)c(C)c2)c(=O)c2cc3occc3n12" .
Data returned: -0.44

Data request: Follow-up item: "CCc1ccccc1NC(=O)Cc1cn(C)c2ccccc12"
Data returned: 4

Data request: And what about the molecule CC1CN(C(=S)Nc2ccc(Br)cc2Cl)CC(C)O1 (stereo unspecified) ?
Data returned: -0.06

----------
# measurementProtocol: TTR transcription activators in neuroblastoma reporter cells, primary screen, cell-based, luminescence, SH-SY5Y, TTR promoter Gaussia luciferase (AID 1117267);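 further: cells exposed to compounds for one day before reading; 0% = median of all test compound wells on the plate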
# conditionLabel: at 16.7 µM, stronger effect = higher value, 100% = recombinant luciferase protein wells
Hit rate of the full screen: of about 92,000 compounds, about 1,200 (1.3%) were called active. The sample as a whole holds a higher share of actives than the screen did.
measuredProperty: activation (%)
Response body: numeric value in %, unit text excluded.

> print(dat)
                                   compound  measured
1  CCc1cc2c(NC(Cc3ccccc3)C(=O)O)ncnc2s1 (stereo not given)      0.89
2  CC(=O)Oc1ccccc1C1=NN(C(C)=O)C(c2ccccc2)C1 (stereo not given)      1.26
3  CCCNC(=O)C(=O)Nc1cc2c3c(c1)CCC(=O)N3CCC2      0.51
4  CCCCN(C)CCNC(=O)C1CCCN(S(=O)(=O)c2cccc3nsnc23)C1 (stereo not given)      14.2
5  Cc1ccc(C(=O)COC(=O)CCCC(=O)NC2CCCCC2)cc1[N+](=O)[O-]     -0.69

Data request: Please look up its activation: "O=c1ccn([C@@H]2O[C@H](CNS(=O)(=O)c3cc4ccccc4s3)[C@@H](O)[C@H]2O)c(=O)[nH]1"
Data returned: -0.41

Data request: Item: O=C(Nc1cc(Cl)cc(Cl)c1)OCCN1CCCC12CCC(c1ccccc1)CC2 (stereo not given)
Data returned: 1.93

Data request: And for CC(Oc1cccc(Cl)c1)C(=O)NC1CC(C)(C)NC(C)(C)C1 (stereo not given) ?
Data returned: -0.86

Data request: Then this compound: "CCOc1ccc(C(=O)NCC(=O)N2CCN(c3ccc(C(F)(F)F)cn3)CC2)cc1"
Data returned: 0.73
